Molecular target: T1, huIL-17RA-FLAG-polyHis (human, UniProt Q96F46 33-320)
T1 construct: also called IL-17RA-FLAG-pHis; wild-type IL-17RA
Test: binning; IL-17RA held by bead mAb R
MEASUREMENT KIND: normalized MFI
Give bare numbers.

>  <BINDER>
AMH11/AML11 (antibody, IgG2, V domains shown, human mAb from IgG2 XenoMouse mice; also called AM-11; antibody A) VH: QVQLVESGGGVVQPGRSLRLSCATSGITFSSYGMHWVRQAPGKGLEWVAVIWYDGSNKYYADSVKGRFTISRDNSKNTLYLQMNSLRAEDTAVYYCARDTKDYWGQGTLVTVSS VL: EIVMTQSPATLSVSPGERATLSCRASQSVSSNLAWYQQKPGQAPRLLIYGASTRAAGIPARFSGGGSGTAFTLTISNLQSEDFAVYYCQHYINWPKWTFGQGTKVDIK

>  <NUMBER>
7060

$$$$
>  <BINDER>
AMH7/AML7 (antibody, IgG2, V domains shown, human mAb from IgG2 XenoMouse mice; also called AM-7; antibody D) VH: QVQLVQSGAEVKKPGASVKVSCKASGYTLTRYGISWVRQAPGQGLEWMGWISAYNGNTNYAQKLQGRVTMTTDTSTSTAYMELRSLRSDDTAVYYCARRDYDILTGYYNGFDPWGQGTLVTVSS VL: DIQMTQSPSSLSASVGDRVTITCRASQGIRNDLGWYQQKPGKAPKRLIYAASSLQSGVPSRFSGSGSGTEFTLTISSLQPEDFATYYCLQHKSYPLTFGGGTKVEIK

>  <NUMBER>
3550

$$$$

Lab note: next binder to report on.
Look up normalized MFI for this binder: AMH6/AML6 (antibody, IgG2, V domains shown, human mAb from IgG2 XenoMouse mice; also called AM-6; antibody E) VH: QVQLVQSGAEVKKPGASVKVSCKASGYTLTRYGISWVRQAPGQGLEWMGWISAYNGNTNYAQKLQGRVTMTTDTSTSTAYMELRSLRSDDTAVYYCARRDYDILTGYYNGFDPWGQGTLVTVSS VL: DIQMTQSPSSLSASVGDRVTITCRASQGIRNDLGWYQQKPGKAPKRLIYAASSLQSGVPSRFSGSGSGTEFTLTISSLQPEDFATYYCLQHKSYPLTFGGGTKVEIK 1660
